Attribute: SI NRU
- Test system: A431 cells
- Protocol summary: Cell viability, NRU assay, A431
- Assay type: cell-based, human
- Measurement context: SI = IC50 HaCaT / IC50 A431, NRU endpoint
Quantity name: SI NRU

INSERT INTO measurements (molecule, experimental_result) VALUES
  ('O=C1N(C2CCCCC2)C(c2ccccc2)C1(Cl)Cl (stereo not drawn) [2k]', '>1.13'),
  ('CC(C)(C)N1C(=O)C(Cl)(Cl)C1c1ccccc1 (stereo not drawn) [2b]', 1.63),
  ('Cc1ccc(C2N(C(C)(C)C)C(=O)C2(Cl)Cl)cc1 (stereo not drawn) [2e]', 0.65),
  ('Cc1ccccc1C1N(C(C)(C)C)C(=O)C1(Cl)Cl (stereo not drawn) [2c]', '>1.0'),
  ('CC(C)N1C(=O)C(Cl)(Cl)C1c1ccccc1 (stereo not drawn) [2j]', 1.06),
  ('CC(C)(C)N1C(=O)C(Cl)(Cl)C1c1cc(F)cc(F)c1 (stereo not drawn) [2h]', '>1.0');

----------
- Protocol summary: Hemolysis assay with human erythrocytes
- Type: cell-based
- Measurement context: human erythrocyte suspension; human RBC suspension, compound at 80 µg/mL, PBS pH 7.4, mean ± SD
Quantity name: hemolysis at 80 µg/mL (%)

INSERT INTO measurements (molecule, experimental_result) VALUES
  ('CC(C)(C)N1C(=O)C(Cl)(Cl)C1c1ccccc1 (stereo not shown)', 2.5);

----------
- Protocol summary: Cell viability-screening assays (MTT and NRU), both cell lines
- Assay type: cell-based, human
- Measurement context: human, HaCaT keratinocytes and A431 squamous cell carcinoma cells; HaCaT and A431, MTT and NRU, 24 h, 10–250 µg/mL; as a function of cell type and endpoint method; read-out: percentage viability compared to control cells
Quantity name: viability at 24 h

INSERT INTO measurements (compound, experimental_result) VALUES
  ('Cc1ccccc1C1N(C(C)(C)C)C(=O)C1(Cl)Cl (stereo not drawn) [2c]', '≤ 50%'),
  ('CC(C)(C)N1C(=O)C(Cl)(Cl)C1c1ccccc1 (stereo not drawn) [2b]', '< 20%'),
  ('CC(C)N1C(=O)C(Cl)(Cl)C1c1ccccc1 (stereo not drawn) [2j]', '< 20%'),
  ('CC(C)(C)N1C(=O)C(Cl)(Cl)C1c1cc(F)cc(F)c1 (stereo not drawn) [2h]', '≤ 50%'),
  ('Cc1ccc(C2N(C(C)(C)C)C(=O)C2(Cl)Cl)cc1 (stereo not drawn) [2e]', '< 20%'),
  ('O=C1N(C2CCCCC2)C(c2ccccc2)C1(Cl)Cl (stereo not drawn) [2k]', '< 20%');

----------
Catalogue of compounds with associated IC50
- Test system: HaCaT cells
- Protocol summary: Cell viability, MTT assay, HaCaT
- Assay type: cell-based
- Measurement context: Homo sapiens, 24 h, MTT endpoint, 10–250 µg/mL tested
Quantity name: IC50 (µg/mL)

INSERT INTO assay_data (compound, reading_qualifier, experimental_result) VALUES
  ('CC(C)(C)N1C(=O)C(Cl)(Cl)C1c1ccccc1 (stereo not drawn)', '=', 19.8),
  ('Cc1ccc(C2N(C(C)(C)C)C(=O)C2(Cl)Cl)cc1 (stereo not drawn)', '=', 92.6),
  ('CC(C)(C)N1C(=O)C(Cl)(Cl)C1c1cc(F)cc(F)c1 (stereo not drawn)', '>', 250),
  ('O=C1N(C2CCCCC2)C(c2ccccc2)C1(Cl)Cl (stereo not drawn)', '>', 250),
  ('CC(C)N1C(=O)C(Cl)(Cl)C1c1ccccc1 (stereo not drawn)', '=', 42.1);
